Test system: Mac-1 and LFA-1-mediated neutrophil binding to immobilized ICAM-1
Assay: Neutrophil (Mac-1 and LFA-1)/ICAM-1 cell-based screening assay
Details: human neutrophils
pIC50: −log10 of the molar value.
Classify by measured pIC50: satisfied if it is equal to or exceeds 8, not satisfied if it is smaller.

{"INPUT SMILES": "O=C(NCc1cccc(O)c1)c1cc(Cl)c(C(=O)N[C@@H](CNC(=O)c2ccsc2)C(=O)O)c(Cl)c1", "TEST SYSTEM": "Mac-1 and LFA-1-mediated neutrophil binding to immobilized ICAM-1", "CLASSIFICATION": "satisfied"}
{"INPUT SMILES": "O=C(NCc1cccc(O)c1)c1ccc(C(=O)N[C@@H](CNC(=O)c2cccc(O)c2)C(=O)O)c(Cl)c1", "TEST SYSTEM": "Mac-1 and LFA-1-mediated neutrophil binding to immobilized ICAM-1", "CLASSIFICATION": "satisfied"}
{"INPUT SMILES": "O=C(NCc1cccc(O)c1)c1cc(Cl)c(C(=O)N[C@@H](CNC(=O)c2cc(F)cc(F)c2)C(=O)O)c(Cl)c1", "TEST SYSTEM": "Mac-1 and LFA-1-mediated neutrophil binding to immobilized ICAM-1", "CLASSIFICATION": "satisfied"}
{"INPUT SMILES": "Cc1cc(C(=O)NCc2cccc(O)c2)cc(Cl)c1C(=O)N[C@@H](CNC(=O)c1cc(O)cc(O)c1)C(=O)O", "TEST SYSTEM": "Mac-1 and LFA-1-mediated neutrophil binding to immobilized ICAM-1", "CLASSIFICATION": "satisfied"}
{"INPUT SMILES": "Cc1cc(C(=O)NCc2cccc(O)c2)cc(Cl)c1C(=O)N[C@@H](CNC(=O)c1cccs1)C(=O)O", "TEST SYSTEM": "Mac-1 and LFA-1-mediated neutrophil binding to immobilized ICAM-1", "CLASSIFICATION": "satisfied"}
{"INPUT SMILES": "O=C(NCc1cccc(O)c1)c1ccc(C(=O)N[C@@H](CNC(=O)c2cccc(F)c2)C(=O)O)c(Cl)c1", "TEST SYSTEM": "Mac-1 and LFA-1-mediated neutrophil binding to immobilized ICAM-1", "CLASSIFICATION": "not satisfied"}
{"INPUT SMILES": "NS(=O)(=O)c1ccc(C(=O)NC[C@H](NC(=O)c2ccc(C(=O)NCc3cccc(O)c3)cc2Cl)C(=O)O)cc1", "TEST SYSTEM": "Mac-1 and LFA-1-mediated neutrophil binding to immobilized ICAM-1", "CLASSIFICATION": "not satisfied"}
{"INPUT SMILES": "O=C(NCc1cccc(O)c1)c1cc(Cl)c(C(=O)N[C@@H](CNC(=O)c2sccc2Br)C(=O)O)c(Cl)c1", "TEST SYSTEM": "Mac-1 and LFA-1-mediated neutrophil binding to immobilized ICAM-1", "CLASSIFICATION": "not satisfied"}
{"INPUT SMILES": "O=C(NCc1cccc(O)c1)c1ccc(C(=O)N[C@@H](CNC(=O)c2ccoc2)C(=O)O)c(Cl)c1", "TEST SYSTEM": "Mac-1 and LFA-1-mediated neutrophil binding to immobilized ICAM-1", "CLASSIFICATION": "not satisfied"}
{"INPUT SMILES": "Cc1ccc(C(=O)NC[C@H](NC(=O)c2c(Cl)cc(C(=O)NCc3cccc(O)c3)cc2Cl)C(=O)O)s1", "TEST SYSTEM": "Mac-1 and LFA-1-mediated neutrophil binding to immobilized ICAM-1", "CLASSIFICATION": "satisfied"}
{"INPUT SMILES": "O=C(NCc1cccc(O)c1)c1ccc(C(=O)N[C@@H](CNC(=O)c2ccc(Br)s2)C(=O)O)c(Cl)c1", "TEST SYSTEM": "Mac-1 and LFA-1-mediated neutrophil binding to immobilized ICAM-1", "CLASSIFICATION": "not satisfied"}
{"INPUT SMILES": "O=C(NCc1cccc(O)c1)c1cc(Cl)c(C(=O)N[C@@H](CNC(=O)c2cccc(F)c2)C(=O)O)c(Cl)c1", "TEST SYSTEM": "Mac-1 and LFA-1-mediated neutrophil binding to immobilized ICAM-1", "CLASSIFICATION": "satisfied"}
{"INPUT SMILES": "O=C(CC1CCCCC1)NC[C@H](NC(=O)c1ccc(C(=O)NCc2cccc(O)c2)cc1Cl)C(=O)O", "TEST SYSTEM": "Mac-1 and LFA-1-mediated neutrophil binding to immobilized ICAM-1", "CLASSIFICATION": "not satisfied"}
{"INPUT SMILES": "Cc1cc(C(=O)NCc2cccc(O)c2)ccc1C(=O)N[C@@H](CNC(=O)c1cccs1)C(=O)O", "TEST SYSTEM": "Mac-1 and LFA-1-mediated neutrophil binding to immobilized ICAM-1", "CLASSIFICATION": "not satisfied"}
{"INPUT SMILES": "Cc1ccc(C(=O)NC[C@H](NC(=O)c2ccc(C(=O)NCc3cccc(O)c3)cc2Cl)C(=O)O)s1", "TEST SYSTEM": "Mac-1 and LFA-1-mediated neutrophil binding to immobilized ICAM-1", "CLASSIFICATION": "not satisfied"}
{"INPUT SMILES": "O=C(NCc1cccc(O)c1)c1ccc(C(=O)N[C@@H](CNC(=O)c2ccccc2)C(=O)O)c(Cl)c1", "TEST SYSTEM": "Mac-1 and LFA-1-mediated neutrophil binding to immobilized ICAM-1", "CLASSIFICATION": "not satisfied"}
{"INPUT SMILES": "O=C(NCc1cccc(O)c1)c1cc(Cl)c(C(=O)N[C@@H](CNC(=O)c2ccc(Br)s2)C(=O)O)c(Cl)c1", "TEST SYSTEM": "Mac-1 and LFA-1-mediated neutrophil binding to immobilized ICAM-1", "CLASSIFICATION": "satisfied"}
{"INPUT SMILES": "COc1cccc(C(=O)NC[C@H](NC(=O)c2ccc(C(=O)NCc3cccc(O)c3)cc2Cl)C(=O)O)c1", "TEST SYSTEM": "Mac-1 and LFA-1-mediated neutrophil binding to immobilized ICAM-1", "CLASSIFICATION": "not satisfied"}
{"INPUT SMILES": "O=C(NCc1cccc(O)c1)c1cc(Cl)c(C(=O)N[C@@H](CNC(=O)c2cccc(O)c2)C(=O)O)c(Cl)c1", "TEST SYSTEM": "Mac-1 and LFA-1-mediated neutrophil binding to immobilized ICAM-1", "CLASSIFICATION": "satisfied"}
{"INPUT SMILES": "O=C(NCc1cccc(O)c1)c1cc(Cl)c(C(=O)N[C@@H](CNC(=O)c2cccs2)C(=O)O)c(Cl)c1", "TEST SYSTEM": "Mac-1 and LFA-1-mediated neutrophil binding to immobilized ICAM-1", "CLASSIFICATION": "satisfied"}
{"INPUT SMILES": "Cc1cc(C(=O)NCc2cccc(O)c2)cc(Cl)c1C(=O)N[C@@H](CNC(=O)c1ccsc1)C(=O)O", "TEST SYSTEM": "Mac-1 and LFA-1-mediated neutrophil binding to immobilized ICAM-1", "CLASSIFICATION": "satisfied"}
{"INPUT SMILES": "O=C(NCc1cccc(O)c1)c1ccc(C(=O)N[C@@H](CNC(=O)c2ccsc2)C(=O)O)c(Cl)c1", "TEST SYSTEM": "Mac-1 and LFA-1-mediated neutrophil binding to immobilized ICAM-1", "CLASSIFICATION": "not satisfied"}
{"INPUT SMILES": "Cc1cccc(C(=O)NC[C@H](NC(=O)c2ccc(C(=O)NCc3cccc(O)c3)cc2Cl)C(=O)O)c1", "TEST SYSTEM": "Mac-1 and LFA-1-mediated neutrophil binding to immobilized ICAM-1", "CLASSIFICATION": "not satisfied"}

Sourced from patent US20040006236A1
